system.tested: CCR2 (Homo sapiens, UniProt P41597)
Sequence (P41597 whole entry, species assumed): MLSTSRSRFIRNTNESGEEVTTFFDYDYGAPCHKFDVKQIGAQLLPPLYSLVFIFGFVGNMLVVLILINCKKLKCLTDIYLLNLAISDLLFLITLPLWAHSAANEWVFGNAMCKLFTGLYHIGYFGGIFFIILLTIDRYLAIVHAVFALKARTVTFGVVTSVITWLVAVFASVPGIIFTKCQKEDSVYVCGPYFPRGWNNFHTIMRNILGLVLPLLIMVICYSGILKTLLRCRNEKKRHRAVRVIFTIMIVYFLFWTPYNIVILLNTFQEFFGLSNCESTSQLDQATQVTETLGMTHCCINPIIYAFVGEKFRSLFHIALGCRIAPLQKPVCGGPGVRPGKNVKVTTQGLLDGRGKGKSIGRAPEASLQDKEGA
test.name: CCR2 in vitro test: intracellular calcium signal detected by FLIPR
study.conditions: HEK293 cells expressing CCR2, agonist MCP-1 at EC80, calcium signal
pIC50: −log10 of the molar value.
The label depends only on pIC50: YES if it is at least 8, NO if it is smaller.

[
  {
    "compound": "CCCOc1ccc(-c2cccc(/C=C(\\C)C(=O)Nc3ccc([S+]([O-])Cc4nncn4CCC)cc3)c2)cc1 (centres unmarked)",
    "label.value": "NO"
  },
  {
    "compound": "CCCCOc1ccc(-c2ccc(Cl)c(/C=C/C(=O)Nc3ccc([S+]([O-])Cc4cncn4CC(C)C)cc3)c2)cc1 (centres unmarked)",
    "label.value": "NO"
  },
  {
    "compound": "CCCOCCOc1ccc(-c2ccc(OC(F)F)c(/C=C/C(=O)Nc3ccc([S@+]([O-])Cc4c(C)ncn4CC)cc3)c2)cc1",
    "label.value": "YES"
  },
  {
    "compound": "CCCCOCCOc1ccc(-c2ccc(OC)c(/C=C/C(=O)Nc3ccc([S@+]([O-])Cc4cncn4CCC)cc3)c2)cc1",
    "label.value": "YES"
  },
  {
    "compound": "CCCCOCCOc1ccc(-c2cccc(/C=C/C(=O)Nc3ccc([S@@+]([O-])Cc4cncn4CCC)cc3)c2)cc1",
    "label.value": "NO"
  },
  {
    "compound": "CCCn1cncc1C[S@+]([O-])c1ccc(NC(=O)/C=C/c2cccc(-c3ccc(N4CCCC4)cc3)c2)cc1",
    "label.value": "NO"
  },
  {
    "compound": "CCCCOCCOc1ccc(-c2cc(/C=C/C(=O)Nc3ccc([S@@+]([O-])Cc4cncn4CCC)cc3)c(OC)c(OC)c2)cc1",
    "label.value": "NO"
  },
  {
    "compound": "CCCCOCCOc1ccc(-c2cc(C)cc(/C=C/C(=O)Nc3ccc([S@+]([O-])Cc4c(C)ncn4CC)cc3)c2)cc1",
    "label.value": "YES"
  },
  {
    "compound": "CCCCOCCOc1ccc(-c2ccc(F)c(/C=C/C(=O)Nc3ccc([S@@+]([O-])Cc4cncn4CCC)cc3)c2)cc1",
    "label.value": "NO"
  },
  {
    "compound": "CCCCOCCOc1ccc(-c2ccc(SC(C)C)c(/C=C/C(=O)Nc3ccc([S@@+]([O-])Cc4cncn4CCC)cc3)c2)cc1",
    "label.value": "NO"
  },
  {
    "compound": "CCCCOCCOc1ccc(-c2cc(C)c(OC)c(/C=C/C(=O)Nc3ccc([S@@+]([O-])Cc4cncn4CCC)cc3)c2)cc1",
    "label.value": "NO"
  }
]

###

test.name: Comparative pharmacokinetics study in cynomolgus monkeys
Type: in vivo
study.conditions: male, plasma; cynomolgus monkey, intravenous injection 1 mg/kg

[
  {
    "compound": "CCCCOCCOc1ccc(-c2ccc3c(c2)/C=C(/C(=O)Nc2ccc([S@@+]([O-])Cc4cncn4CCC)cc2)CCCN3CC(C)C)cc1 [(Cenicriviroc), Cenicriviroc, reference compound]",
    "units.text": "mL/min/kg",
    "clearance": 8.74
  },
  {
    "compound": "CCCCOCCOc1ccc(-c2ccc(OCC)c(/C=C/C(=O)Nc3ccc([S@+]([O-])Cc4c(C)ncn4CC)cc3)c2)cc1",
    "units.text": "mL/min/kg",
    "clearance": 9.11
  }
]

###

test.name: Comparative pharmacokinetics study in rats
Type: in vivo, SD male rats
study.conditions: rat, relative to Cenicriviroc
experimental.readout: Plasma clearance as percent of that of the reference compound (%)

[
  {
    "compound": "CCCCOCCOc1ccc(-c2ccc(OC)c(/C=C/C(=O)Nc3ccc([S@+]([O-])Cc4c(C)ncn4CC)cc3)c2)cc1 [WX079]",
    "units.text": "%",
    "recorded.value": 14
  },
  {
    "compound": "CCCCOCCOc1ccc(-c2ccc(OC)c(/C=C/C(=O)Nc3ccc([S@@+]([O-])Cc4cncn4CCC)cc3)c2)cc1 [WX017]",
    "units.text": "%",
    "recorded.value": 25
  },
  {
    "compound": "CCCCOCCOc1ccc(-c2cc(F)c(OC)c(/C=C/C(=O)Nc3ccc([S@+]([O-])Cc4c(C)ncn4CC)cc3)c2)cc1 [WX088]",
    "units.text": "%",
    "recorded.value": 21
  },
  {
    "compound": "CCCCOCCOc1ccc(-c2ccc(OCC)c(/C=C/C(=O)Nc3ccc([S@+]([O-])Cc4c(C)ncn4CC)cc3)c2)cc1 [WX047]",
    "units.text": "%",
    "recorded.value": 33
  }
]

###

system.tested: CCR5 (Homo sapiens, UniProt P51681)
Sequence (P51681 whole entry, species assumed): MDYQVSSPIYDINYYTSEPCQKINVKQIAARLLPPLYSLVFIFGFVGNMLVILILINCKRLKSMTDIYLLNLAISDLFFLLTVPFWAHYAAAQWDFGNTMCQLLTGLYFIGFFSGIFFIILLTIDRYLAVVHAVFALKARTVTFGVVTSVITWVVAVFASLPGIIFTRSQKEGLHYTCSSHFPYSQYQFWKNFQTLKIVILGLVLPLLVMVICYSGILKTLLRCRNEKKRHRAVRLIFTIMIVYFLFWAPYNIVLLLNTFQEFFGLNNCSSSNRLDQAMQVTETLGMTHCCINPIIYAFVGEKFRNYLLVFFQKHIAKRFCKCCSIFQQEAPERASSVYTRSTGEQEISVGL
test.name: CCR5 in vitro test: intracellular calcium signal detected by FLIPR
study.conditions: HEK293 cells expressing CCR5, agonist RANTES at EC80, calcium signal
Please respond with met when measured IC50 is strictly beneath 10 nM, and with not met in all other cases.

[
  {
    "molecule": "CCCCOCCOc1ccc(-c2ccc(OC(C)C)c(/C=C/C(=O)Nc3ccc([S@@+]([O-])Cc4cncn4CCC)cc3)c2)cc1",
    "label.value": "not met"
  },
  {
    "molecule": "CCCOc1ccc(-c2ccc(OC(F)F)c(/C=C/C(=O)Nc3ccc([S@+]([O-])Cc4c(C)ncn4CC)cc3)c2)cc1",
    "label.value": "met"
  },
  {
    "molecule": "CCCCOCCOc1ccc(-c2ccc(F)c(/C(C)=C/C(=O)Nc3ccc([S@@+]([O-])Cc4cncn4CCC)cc3)c2)cc1",
    "label.value": "met"
  },
  {
    "molecule": "CCCCOCCOc1ccc(-c2ccc(C)c(/C=C/C(=O)Nc3ccc([S@@+]([O-])Cc4cncn4CCC)cc3)c2)cc1",
    "label.value": "met"
  },
  {
    "molecule": "CCCCOCCOc1ccc(-c2ccc(OC)c(/C=C/C(=O)Nc3ccc([S+]([O-])Cc4c(C)ncn4CC)cc3)c2)cc1 (centres unmarked)",
    "label.value": "not met"
  },
  {
    "molecule": "CCCCOc1ccc(-c2ccc(OC(F)F)c(/C=C/C(=O)Nc3ccc([S@@+]([O-])Cc4cncn4CCC)cc3)c2)cc1",
    "label.value": "met"
  },
  {
    "molecule": "CCCCOCCOc1ccc(-c2cc(C)c(OC)c(/C=C/C(=O)Nc3ccc([S@+]([O-])Cc4c(C)ncn4CC)cc3)c2)cc1",
    "label.value": "met"
  },
  {
    "molecule": "CCCCOCCOc1ccc(-c2ccc(OC)c(/C=C/C(=O)Nc3ccc([S@@+]([O-])Cc4cncn4CCC)cc3)c2)cc1",
    "label.value": "met"
  },
  {
    "molecule": "CCCCOCCOc1ccc(-c2ccc(OCC)c(/C=C/C(=O)Nc3ccc([S@+]([O-])Cc4c(C)ncn4CC)cc3)c2)cc1",
    "label.value": "met"
  },
  {
    "molecule": "CCCn1cncc1C[S@+]([O-])c1ccc(NC(=O)/C=C/c2cccc(-c3ccc(OC)cc3)c2)cc1",
    "label.value": "not met"
  },
  {
    "molecule": "CCCCOCCOc1ccc(-c2cccc(/C=C/C(=O)Nc3ccc([S@@+]([O-])Cc4nncn4CCC)cc3)c2)cc1",
    "label.value": "not met"
  },
  {
    "molecule": "CCCCOCCOc1ccc(-c2ccc(F)c(/C=C/C(=O)Nc3ccc([S@+]([O-])Cc4c(C)ncn4CC)cc3)c2)cc1",
    "label.value": "met"
  },
  {
    "molecule": "CCCCOCCOc1ccc(-c2cccc(/C=C/C(=O)Nc3ccc([S+]([O-])Cc4cncn4CCCC)cc3)c2)cc1 (centres unmarked)",
    "label.value": "not met"
  }
]

###

system.tested: CCR5 (Homo sapiens)
test.name: CCR5 in vitro test: intracellular calcium signal detected by FLIPR
study.conditions: HEK293 cells expressing CCR5, agonist RANTES at EC80, calcium signal
Listed here: items and their measured IC50.

[
  {
    "molecule": "CCCOCCOc1ccc(-c2ccc(OC(F)F)c(/C=C/C(=O)Nc3ccc([S@+]([O-])Cc4c(C)ncn4CC)cc3)c2)cc1 [WX074]",
    "units.text": "nM",
    "IC50": 3.5
  },
  {
    "molecule": "CCCn1cncc1C[S@+]([O-])c1ccc(NC(=O)/C=C/c2cccc(-c3ccc(N4CCCC4)cc3)c2)cc1 [WX037]",
    "units.text": "nM",
    "IC50": 44.2
  },
  {
    "molecule": "CCCCOCCOc1ccc(-c2ccc(OC(F)F)c(/C=C/C(=O)Nc3ccc([S@+]([O-])Cc4c(C)ncn4CC)cc3)c2)cc1 [WX046]",
    "units.text": "nM",
    "IC50": 2.8
  },
  {
    "molecule": "CCCCOc1ccc(-c2ccc(Cl)c(/C=C/C(=O)Nc3ccc([S+]([O-])Cc4cncn4CC4CC4)cc3)c2)cc1 (stereo not shown) [WX021]",
    "units.text": "nM",
    "IC50": 8.8
  },
  {
    "molecule": "CCCCOCCOc1ccc(-c2ccc(OC(F)(F)F)c(/C=C/C(=O)Nc3ccc([S@+]([O-])Cc4c(C)ncn4CC)cc3)c2)cc1 [WX055]",
    "units.text": "nM",
    "IC50": 6.4
  },
  {
    "molecule": "CCCCOCCOc1ccc(-c2ccc(OC)c(/C=C/C(=O)Nc3ccc([S@@+]([O-])Cc4c(C)ncn4CCC)cc3)c2)cc1 [WX076]",
    "units.text": "nM",
    "IC50": 8.5
  },
  {
    "molecule": "CCCCOCCOc1ccc(-c2ccc(SC(C)C)c(/C=C/C(=O)Nc3ccc([S@@+]([O-])Cc4cncn4CCC)cc3)c2)cc1 [WX058]",
    "units.text": "nM",
    "IC50": 5.7
  }
]
